- measurementTarget: full-length beta-Catenin (Uniprot ID P35222) (Homo sapiens, UniProt P35222)
- Construct: 10 nM full-length beta-Catenin (Uniprot ID P35222)
- assaySummary: Fluorescence polarization IC50 (beta-catenin / 5FAM-TCF4 10-53 competition)
- Assay type: binding
- assayConditions: fluorescence polarization; read-out: beta-Catenin FP IC50

compound	measurementTarget	IC50, nM
CCCC[C@@H]1NC(=O)[C@H](Cc2ccccc2)NC(=O)[C@H](C)NC(=O)[C@H](C)NC(=O)[C@H]([C@@H](C)O)NC(=O)[C@H](CC(N)=O)NC(=O)C2(CCCC=CCCCOC(=O)N3CC[C@@](C(=O)N[C@@H](Cc4ccsc4)C(=O)N[C@@H](Cc4csc5ccccc45)C(=O)N[C@@H](CCC(N)=O)C(N)=O)(C3)NC1=O)CCCC=CC[C@]1(CCCN1C(C)=O)C(=O)N[C@@H](CC(=O)O)C(=O)N[C@@H](CC(C)(C)C)C(=O)N2 (stereo partly drawn)	full-length beta-Catenin (Uniprot ID P35222) (Homo sapiens, UniProt P35222)	1290
CC(=O)N1CCC[C@]12CC=CCCCC1(CCCC=CCCCOC(=O)N3CC[C@@](C(=O)N[C@@H](Cc4ccccc4Cl)C(=O)N[C@@H](Cc4csc5ccccc45)C(=O)N[C@@H](CC(N)=O)C(N)=O)(C3)NC(=O)[C@H](CO)NC(=O)[C@H](Cc3ccccc3)NC(=O)[C@H](C)NC(=O)[C@H](C)NC(=O)[C@H](Cc3cccc(C(=O)O)c3)NC(=O)[C@H](CC(=O)O)NC1=O)NC(=O)[C@H](CC(C)(C)C)NC(=O)[C@H](CC(=O)O)NC2=O (stereo partly drawn) [I-2039]	full-length beta-Catenin (Uniprot ID P35222) (Homo sapiens, UniProt P35222)	9
CC(=O)N1CCC[C@]12CC=CCCCC1(CCCC=CCCCOC(=O)N3CC[C@@](C(=O)N[C@@H](Cc4ccsc4)C(=O)N[C@@H](Cc4csc5ccccc45)C(=O)N[C@@H](CCC(N)=O)C(N)=O)(C3)NC(=O)[C@H](CC(C)C)NC(=O)[C@H](Cc3ccccc3)NC(=O)[C@H](C)NC(=O)[C@H](C)NC(=O)[C@H](CC(=O)S)NC(=O)[C@H](CC(=O)O)NC1=O)NC(=O)[C@H](CC(C)(C)C)NC(=O)[C@H](CC(=O)O)NC2=O (stereo partly drawn) [I-1946]	full-length beta-Catenin (Uniprot ID P35222) (Homo sapiens, UniProt P35222)	874

====

The entries below come with measured Solubility values attached.
- assaySummary: Solubility in PBS
- Type: physicochemical

compound	Solubility / µM
CC(=O)N1CCC[C@]12CC=CCCCC1(CCCC=CCCCCCC[C@@](C)(C(=O)N[C@@H](Cc3cccc(F)c3F)C(=O)N[C@@H](Cc3csc4ccccc34)C(=O)N[C@@H](CCC(N)=O)C(N)=O)NC(=O)[C@H](C(C)C)NC(=O)[C@H](Cc3ccccc3)NC(=O)[C@H](C)NC(=O)[C@H](C)NC(=O)[C@H](CCC(=O)O)NC(=O)[C@H](CC(=O)O)NC1=O)NC(=O)[C@H](C)NC(=O)[C@H](CC(=O)O)NC2=O (stereo partly shown) [I-388]	10
CC(=O)N1CCC[C@]12CC=CCCCC1(CCCC=CCCCOC(=O)N3CC[C@@](C(=O)N[C@@H](Cc4ccccc4)C(=O)N[C@@H](Cc4cccc5ccccc45)C(=O)N[C@@H](CCC(N)=O)C(N)=O)(C3)NC(=O)[C@H](CC(C)C)NC(=O)[C@H](Cc3ccccc3)NC(=O)[C@H](C)NC(=O)[C@H](C)NC(=O)[C@H]([C@@H](C)O)NC(=O)[C@H](CC(N)=O)NC1=O)NC(=O)[C@H](CC(C)(C)C)NC(=O)[C@H](CC(=O)O)NC2=O (stereo partly shown) [I-1298]	10
CC(=O)N1CCC[C@]12CC=CCCCC1(CCCC=CCCCCCC[C@@](C)(C(=O)N[C@@H](Cc3ccccc3)C(=O)N[C@@H](Cc3c[nH]c4ccccc34)C(=O)N[C@@H](CCC(N)=O)C(N)=O)NC(=O)[C@H](C(C)C)NC(=O)[C@H](Cc3cccc(F)c3)NC(=O)[C@H](C)NC(=O)[C@H](C)NC(=O)[C@H](CC(=O)O)NC(=O)[C@H](CC(=O)O)NC1=O)NC(=O)[C@H](C)NC(=O)[C@H](CC(=O)O)NC2=O (stereo partly shown) [I-265]	36
CC(=O)N1CCC[C@]12CC=CCCCC1(CCCC=CCCCOC(=O)N3CC[C@@](C(=O)N[C@@H](Cc4ccccc4F)C(=O)N[C@@H](Cc4csc5ccccc45)C(=O)N[C@@H](CO)C(N)=O)(C3)NC(=O)[C@H](CO)NC(=O)[C@H](Cc3ccccc3)NC(=O)[C@H](C)NC(=O)[C@H](C)NC(=O)[C@H](CC(=O)O)NC(=O)[C@H](CC(=O)O)NC1=O)NC(=O)[C@H](CC1CCCCC1)NC(=O)[C@H](CC(=O)O)NC2=O (stereo partly shown) [I-1102]	10
CCN(CC(=O)O)C[C@@H]1NC(=O)[C@H](CC(=O)O)NC(=O)C2(CCCC=CCCCOC(=O)N3CC[C@@](C(=O)N[C@@H](Cc4ccsc4)C(=O)N[C@@H](Cc4csc5ccccc45)C(=O)N[C@@H](CO)C(N)=O)(C3)NC(=O)[C@H](CO)NC(=O)[C@H](Cc3ccccc3)NC(=O)[C@H](C)NC(=O)[C@H](C)NC1=O)CCCC=CC[C@]1(CCCN1C(C)=O)C(=O)N[C@@H](CC(=O)O)C(=O)N[C@@H](CC(C)(C)C)C(=O)N2 (stereo partly shown) [I-975]	46
CC(=O)N1CCC[C@]12CC=CCCCC1(CCCC=CCCCCCC[C@@](C)(C(=O)N[C@@H](Cc3ccccc3)C(=O)N[C@@H](Cc3csc4ccccc34)C(=O)N[C@@H](Cc3cn(C)cn3)C(N)=O)NC(=O)[C@H](CC(N)=O)NC(=O)[C@H](Cc3ccccc3)NC(=O)[C@H](C)NC(=O)[C@H](C)NC(=O)[C@H](CCC(=O)O)NC(=O)[C@H](CC(=O)O)NC1=O)NC(=O)[C@H](C)NC(=O)[C@H](CC(=O)O)NC2=O (stereo partly shown) [I-479]	38
CC[C@H](C)[C@@H]1NC(=O)[C@H](CC(=O)O)NC(=O)[C@]2(CC=CCCCC3(CCCC=CCCCCCC[C@@](C)(C(=O)N[C@@H](Cc4ccccc4)C(=O)N[C@@H](Cc4csc5ccccc45)C(=O)N[C@@H](CCC(N)=O)C(N)=O)NC(=O)[C@H](CC(N)=O)NC(=O)[C@H](Cc4ccccc4)NC(=O)[C@H](C)NC(=O)[C@H](C)NC(=O)[C@H](CC(=O)O)NC(=O)[C@H](CC(=O)O)NC3=O)NC1=O)CCCN2C(C)=O (stereo partly shown) [I-467]	50
CC(=O)N1CCC[C@]12CC=CCCCC1(CCCC=CCCCCCC[C@@](C)(C(=O)N[C@@H](Cc3ccccc3)C(=O)N[C@@H](Cc3csc4ccccc34)C(=O)N[C@H](C(N)=O)[C@@H](C)O)NC(=O)[C@H](CCC(N)=O)NC(=O)[C@H](Cc3ccccc3)NC(=O)[C@H](C)NC(=O)[C@H](C)NC(=O)[C@H](CCC(=O)O)NC(=O)[C@H](CC(=O)O)NC1=O)NC(=O)[C@H](C)NC(=O)[C@H](CC(=O)O)NC2=O (stereo partly shown) [I-507]	47
CC(=O)N1CCC[C@]12CC=CCCCC1(CCCC=CCCCOC(=O)N3CC[C@@](C(=O)N[C@@H](Cc4ccccc4)C(=O)N[C@@H](Cc4csc5ccccc45)C(=O)N[C@@H](CCC(N)=O)C(N)=O)(C3)NC(=O)[C@H](CC(C)C)NC(=O)[C@H](Cc3ccccc3)NC(=O)[C@H](C)NC(=O)[C@H](CCCCNC(C)C)NC(=O)[C@H]([C@@H](C)O)NC(=O)[C@H](CC(=O)O)NC1=O)NC(=O)[C@H](CC(C)(C)C)NC(=O)[C@H](CC(N)=O)NC2=O (single isomer, unassigned) [I-1289]	10
CC(=O)N1CCC[C@]12CC=CCCCC1(CCCC=CCCCOC(=O)N3CC[C@@](C(=O)N[C@@H](Cc4ccsc4)C(=O)N[C@@H](Cc4csc5ccccc45)C(=O)N[C@H](CO)[C@@H](C)O)(C3)NC(=O)[C@H](Cc3cccc(C(F)(F)F)c3)NC(=O)[C@H](Cc3ccccc3)NC(=O)[C@H](C)NC(=O)[C@H](C)NC(=O)[C@H](CC(=O)O)NC(=O)[C@H](CC(=O)O)NC1=O)NC(=O)[C@H](CC(C)(C)C)NC(=O)[C@H](CC(=O)O)NC2=O (stereo partly shown) [I-1371]	10

====

Measured IC50 accompanies every entry in the list below.
- measurementTarget: full-length beta-Catenin (Uniprot ID P35222) (Homo sapiens)
- Construct: 10 nM full-length beta-Catenin (Uniprot ID P35222)
- Sequence (P35222 1-781): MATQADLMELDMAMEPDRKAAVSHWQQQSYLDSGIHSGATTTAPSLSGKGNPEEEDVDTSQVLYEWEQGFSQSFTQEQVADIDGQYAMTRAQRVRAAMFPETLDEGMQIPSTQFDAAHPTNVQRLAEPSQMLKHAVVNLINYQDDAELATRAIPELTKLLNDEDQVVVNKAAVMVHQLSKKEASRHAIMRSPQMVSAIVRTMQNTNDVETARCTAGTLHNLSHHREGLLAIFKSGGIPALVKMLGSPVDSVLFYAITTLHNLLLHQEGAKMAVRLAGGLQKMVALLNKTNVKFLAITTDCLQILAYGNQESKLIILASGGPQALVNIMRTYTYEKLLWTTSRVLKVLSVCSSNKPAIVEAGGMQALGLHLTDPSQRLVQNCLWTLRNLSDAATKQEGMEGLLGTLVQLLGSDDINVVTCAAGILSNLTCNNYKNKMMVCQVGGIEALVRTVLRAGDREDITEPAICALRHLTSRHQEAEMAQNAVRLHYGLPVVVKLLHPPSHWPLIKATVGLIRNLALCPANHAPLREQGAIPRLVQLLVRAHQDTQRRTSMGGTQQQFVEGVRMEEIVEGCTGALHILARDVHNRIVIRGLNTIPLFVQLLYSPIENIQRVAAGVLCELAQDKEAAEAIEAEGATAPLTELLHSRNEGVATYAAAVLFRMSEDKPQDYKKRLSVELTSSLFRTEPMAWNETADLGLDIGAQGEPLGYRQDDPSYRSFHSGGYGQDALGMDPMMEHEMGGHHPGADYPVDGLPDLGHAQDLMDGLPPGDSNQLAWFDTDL
- assaySummary: Fluorescence polarization IC50 (beta-catenin / 5FAM-TCF4 10-53 competition)
- Type: binding
- assayConditions: fluorescence polarization; read-out: beta-Catenin FP IC50
measurementLabel: IC50

compound	measurementLabel	recordedResult
CC[C@H](C)[C@@H]1NC(=O)[C@H](CC(=O)O)NC(=O)[C@]2(CC=CCCCC3(CCCC=CCCCCCC[C@@](C)(C(=O)N[C@@H](Cc4ccccc4)C(=O)N[C@@H](Cc4csc5ccccc45)C(=O)N[C@H](C(N)=O)C(C)C)NC(=O)[C@H](CCC(N)=O)NC(=O)[C@H](Cc4ccccc4)NC(=O)[C@H](C)NC(=O)[C@H](C)NC(=O)[C@H](CCC(=O)O)NC(=O)[C@H](CC(=O)O)NC3=O)NC1=O)CCCN2C(C)=O (stereo partly drawn) [I-646]	IC50	461 nM
CC(=O)N1CCC[C@]12CC=CCCCC1(CCCC=CCCCOC(=O)N3CC[C@@](C(=O)N[C@@H](Cc4ccccc4)C(=O)N[C@@H](Cc4csc5ccccc45)C(=O)N[C@@H](CCO)C(N)=O)(C3)NC(=O)[C@H](CC(N)=O)NC(=O)[C@H](Cc3ccccc3)NC(=O)[C@H](CO)NC(=O)[C@H](CCCCNC(C)C)NC(=O)[C@H](CCC(N)=O)NC(=O)[C@H](CC(=O)O)NC1=O)NC(=O)[C@H](CC1CCCCC1)NC(=O)[C@H](CC(N)=O)NC2=O (stereo partly drawn) [I-1931]	IC50	1560 nM
CC(=O)N1CCC[C@]12CC=CCCCC1(CCCC=CCCCOC(=O)N3CC[C@@](C(=O)N[C@@H](Cc4ccccc4)C(=O)N[C@@H](Cc4csc5ccccc45)C(=O)N[C@@H](CCC(N)=O)C(N)=O)(C3)NC(=O)[C@H](CC(C)C)NC(=O)[C@H](Cc3ccccc3)NC(=O)[C@H](C)NC(=O)[C@H](CCCCNC(C)C)NC(=O)[C@H](Cc3cccc(C(N)=O)c3)NC(=O)[C@H](CC(=O)O)NC1=O)NC(=O)[C@H](CC1CCCCC1)NC(=O)[C@H](CC(N)=O)NC2=O (stereo partly drawn) [I-2342]	IC50	2730 nM
